meta.source: patent US20090311237A1

PROTOCOL_DESCRIPTION: Phase 1 Stage 1 clinical pharmacokinetics of SC ZA co-administered with rHuPH20
Type: in vivo, human
EXPERIMENTAL_CONTEXT: human, serum, sc, serum; ZA 0.25 mg SC infusion + 24000 Units rHuPH20; 1 h post infusion; n=3; read-out: Mean Conc.
ENDPOINT_NAME: concentration at 1 h

COMPOUND_STRUCTURE	ENDPOINT_NAME	RESULT
O=P(O)(O)C(O)(Cn1ccnc1)P(=O)(O)O	concentration at 1 h	6.51 ng/mL

* * *

PROTOCOL_DESCRIPTION: Phase 1 Stage 1 clinical pharmacokinetics of SC ZA co-administered with rHuPH20
Format: in vivo, human
EXPERIMENTAL_CONTEXT: human, serum, sc, ZA 2 mg SC + 24000 U rHuPH20; individual subjects; read-out: Vz/F
ENDPOINT_NAME: Vd/F (L/kg)

COMPOUND_STRUCTURE	ENDPOINT_NAME	UNIT_OF_MEASURE	NUMERIC_RESULT
O=P(O)(O)C(O)(Cn1ccnc1)P(=O)(O)O	Vd/F	L/kg	2.48

* * *

PROTOCOL_DESCRIPTION: Pharmacokinetics of ZA in pig serum after IV or SC infusion with or without rHuPH20 (LC-MS-MS, non-compartmental analysis)
Format: in vivo
EXPERIMENTAL_CONTEXT: female, Yorkshire, pig, serum, sc, […], pig 60; SC ZA […], 100 mL over 16 min, no rHuPH20; read-out: T½ λz (converted)
ENDPOINT_NAME: half-life (min)

COMPOUND_STRUCTURE	UNIT_OF_MEASURE	NUMERIC_RESULT
O=P(O)(O)C(O)(Cn1ccnc1)P(=O)(O)O	min	52.2

* * *

PROTOCOL_DESCRIPTION: Phase 1 Stage 1 clinical pharmacokinetics of SC ZA co-administered with rHuPH20
Assay type: in vivo, human
EXPERIMENTAL_CONTEXT: human, serum, sc, ZA 0.5 mg SC + 24000 U rHuPH20; mean, n=3
ENDPOINT_NAME: Cmax (ng/mL)

COMPOUND	NUMERIC_RESULT
O=P(O)(O)C(O)(Cn1ccnc1)P(=O)(O)O [ZA]	15.5

* * *

PROTOCOL_DESCRIPTION: Phase 1 Stage 1 clinical pharmacokinetics of SC ZA co-administered with rHuPH20
Format: in vivo, human
EXPERIMENTAL_CONTEXT: human, serum, sc, […], Subj 32; ZA […] SC; inf 0.556 hr; PH20 24000 U; read-out: AUC (0-inf)
Method: A pharmacokinetic study of zoledronic acid (ZA) co-administered with rHuPH20 in human subjects was conducted. […] Serum concentration of ZA was determined using a qualified LC-MS-MS assay after derivatization with diazomethane (Zhu, L S et al. (2006) Rapid Commun. […] The assay range was from 2.0 to 400 ng/mL with a lower limit of quantitation (LLOQ) at 2.0 ng/mL. […] Summary statistics (mean, standard deviation, and median) were calculated using JMP or Microsoft Excel.
ENDPOINT_NAME: AUC(0-inf) (ng·h/mL)

COMPOUND_STRUCTURE	ENDPOINT_NAME	NUMERIC_RESULT
O=P(O)(O)C(O)(Cn1ccnc1)P(=O)(O)O	AUC(0-inf)	295

* * *

PROTOCOL_DESCRIPTION: Pharmacokinetics of ZA in pig serum after IV or SC infusion with or without rHuPH20 (LC-MS-MS, non-compartmental analysis)
Type: in vivo
EXPERIMENTAL_CONTEXT: female, Yorkshire, pig, serum, subcutaneous, […], Time 1 h; pig ID 60; Study Group 2; SC; ZA […]; 100 mL, 16 min; rHuPH20 0 U/mL; read-out: Zoledronic Acid Serum Concentration
Experimental: A pharmacokinetic study of zoledronic acid (ZA) co-administered with rHuPH20 in female Yorkshire swines was conducted. […] Serum concentration of ZA was determined using a qualified LC-MS-MS assay after derivatization with diazomethane (Zhu, L S et al. (2006) Rapid Commun. Mass Spectrom. 20: 3421-3426; “Qualification Data of An LC-MS/MS Method for the Determination of Zoledronate in Porcine Serum”, MDS Pharma Services Study No. AA43671-01, Report Date 14 Sep. 2007). […]
ENDPOINT_NAME: concentration at 1 h (ng/mL)

COMPOUND_STRUCTURE	NUMERIC_RESULT
O=P(O)(O)C(O)(Cn1ccnc1)P(=O)(O)O	149

* * *

PROTOCOL_DESCRIPTION: Pharmacokinetics of ZA in pig serum after IV or SC infusion with or without rHuPH20 (LC-MS-MS, non-compartmental analysis)
Format: in vivo
EXPERIMENTAL_CONTEXT: female, Yorkshire, pig, serum, sc, […], pig 69; SC ZA […], 25 mL over 4 min, no rHuPH20; read-out: Tmax
ENDPOINT_NAME: Tmax (min)

COMPOUND_STRUCTURE	NUMERIC_RESULT
O=P(O)(O)C(O)(Cn1ccnc1)P(=O)(O)O	10

* * *

PROTOCOL_DESCRIPTION: Phase 1 Stage 1 clinical pharmacokinetics of SC ZA co-administered with rHuPH20
Type: in vivo, human
EXPERIMENTAL_CONTEXT: human, serum, sc, serum; ZA 2 mg SC infusion + 24000 Units rHuPH20; 24 h post infusion; individual subjects; read-out: Zoledronic Acid Concentration

COMPOUND_STRUCTURE	concentration at 24 h [ng/mL]
O=P(O)(O)C(O)(Cn1ccnc1)P(=O)(O)O	0.78

* * *

PROTOCOL_DESCRIPTION: Phase 1 Stage 1 clinical pharmacokinetics of SC ZA co-administered with rHuPH20
Format: in vivo, human
EXPERIMENTAL_CONTEXT: human, serum, sc, […], AUC (0-48 h), Subj 21; ZA […] SC; inf 0.556 hr; PH20 24000 U
Experimental: A pharmacokinetic study of zoledronic acid (ZA) co-administered with rHuPH20 in human subjects was conducted. […] Serum concentration of ZA was determined using a qualified LC-MS-MS assay after derivatization with diazomethane (Zhu, L S et al. (2006) Rapid Commun. […] The assay range was from 2.0 to 400 ng/mL with a lower limit of quantitation (LLOQ) at 2.0 ng/mL. […] Summary statistics (mean, standard deviation, and median) were calculated using JMP or Microsoft Excel.

COMPOUND	UNIT_OF_MEASURE	AUC(0-t)
O=P(O)(O)C(O)(Cn1ccnc1)P(=O)(O)O [ZA]	ng·h/mL	66.1

* * *

PROTOCOL_DESCRIPTION: Phase 1 Stage 1 clinical pharmacokinetics of SC ZA co-administered with rHuPH20
Assay type: in vivo, human
EXPERIMENTAL_CONTEXT: human, serum, sc, 0.0706 mg/kg, Subj 38; ZA 0.0706 mg/kg SC; inf 0.554 hr; PH20 23952 U; read-out: AUC (0-inf)

COMPOUND_STRUCTURE	UNIT_OF_MEASURE	AUC(0-inf)
O=P(O)(O)C(O)(Cn1ccnc1)P(=O)(O)O	ng·h/mL	637

* * *

PROTOCOL_DESCRIPTION: Phase 1 Stage 1 clinical pharmacokinetics of SC ZA co-administered with rHuPH20
Format: in vivo, human
EXPERIMENTAL_CONTEXT: human, serum, sc, serum; ZA 0.5 mg SC infusion + 24000 Units rHuPH20; 1 h post infusion; n=3; read-out: Mean Conc.
Method: A pharmacokinetic study of zoledronic acid (ZA) co-administered with rHuPH20 in human subjects was conducted. […] Serum concentration of ZA was determined using a qualified LC-MS-MS assay after derivatization with diazomethane (Zhu, L S et al. (2006) Rapid Commun. […] The assay range was from 2.0 to 400 ng/mL with a lower limit of quantitation (LLOQ) at 2.0 ng/mL. […] Summary statistics (mean, standard deviation, and median) were calculated using JMP or Microsoft Excel.

COMPOUND_STRUCTURE	concentration at 1 h
O=P(O)(O)C(O)(Cn1ccnc1)P(=O)(O)O	14.3 ng/mL

* * *

PROTOCOL_DESCRIPTION: Pharmacokinetics of ZA in pig serum after IV or SC infusion with or without rHuPH20 (LC-MS-MS, non-compartmental analysis)
Format: in vivo
EXPERIMENTAL_CONTEXT: female, Yorkshire, pig, serum, subcutaneous, […], Time 8 h; pig ID 70; Study Group 2; SC; ZA […]; 10 mL, 1.6 min; rHuPH20 0 U/mL; read-out: Zoledronic Acid Serum Concentration

COMPOUND_STRUCTURE	UNIT_OF_MEASURE	concentration at 8 h
O=P(O)(O)C(O)(Cn1ccnc1)P(=O)(O)O	ng/mL	2.07

* * *

PROTOCOL_DESCRIPTION: Phase 1 Stage 1 clinical pharmacokinetics of SC ZA co-administered with rHuPH20
Format: in vivo, human
EXPERIMENTAL_CONTEXT: human, serum, sc, serum; ZA 0.5 mg SC infusion + 24000 Units rHuPH20; 0.5 h post infusion; n=3; read-out: Median Conc.
ENDPOINT_NAME: concentration at 0.5 h (ng/mL)

COMPOUND_STRUCTURE	ENDPOINT_NAME	UNIT_OF_MEASURE	NUMERIC_RESULT
O=P(O)(O)C(O)(Cn1ccnc1)P(=O)(O)O	concentration at 0.5 h	ng/mL	13.8
